System: Human 5-HT4 receptor (5-HT4b) (Homo sapiens, UniProt Q13639) | Read-out: IC50
Sequence (Q13639 whole entry): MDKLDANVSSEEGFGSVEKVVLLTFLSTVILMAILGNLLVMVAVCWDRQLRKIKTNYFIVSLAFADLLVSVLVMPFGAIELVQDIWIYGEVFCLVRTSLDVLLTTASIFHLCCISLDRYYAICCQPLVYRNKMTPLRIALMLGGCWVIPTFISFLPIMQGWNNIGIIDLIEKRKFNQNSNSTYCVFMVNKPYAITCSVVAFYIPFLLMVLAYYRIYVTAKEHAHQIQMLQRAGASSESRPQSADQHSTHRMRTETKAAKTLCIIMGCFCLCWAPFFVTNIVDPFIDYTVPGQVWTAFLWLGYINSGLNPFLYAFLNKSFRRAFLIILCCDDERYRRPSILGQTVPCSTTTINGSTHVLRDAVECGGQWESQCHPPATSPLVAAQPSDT

compound	testSystem	IC50
CC(C)c1nn(-c2noc(C3CCN(C4CCN(C(=O)CO)CC4(C)C)CC3)n2)c2c(F)cccc12 (stereo not drawn)	Human 5-HT4 receptor (5-HT4b) (Homo sapiens, UniProt Q13639)	< 20 nM
CC(C)c1nn(-c2noc([C@H]3CC[C@@H](NCC4CCN(S(C)(=O)=O)CC4)CC3)n2)c2c(F)cccc12	Human 5-HT4 receptor (5-HT4b) (Homo sapiens, UniProt Q13639)	< 20 nM
CC(C)c1nn(-c2noc(C[C@H]3CCN(CC4CN(S(C)(=O)=O)C4)C3)n2)c2c(F)cccc12	Human 5-HT4 receptor (5-HT4b) (Homo sapiens, UniProt Q13639)	< 20 nM
CC(=O)N1CCC(N2C3CCC2CC(c2nc(-n4nc(C(C)C)c5cccc(F)c54)no2)C3)CC1 (stereo not drawn)	Human 5-HT4 receptor (5-HT4b) (Homo sapiens, UniProt Q13639)	63.8 nM
COCCN(CC1CCOCC1)C1CC(c2nc(-n3nc(C(C)C)c4cccc(F)c43)no2)C1 (stereo not drawn)	Human 5-HT4 receptor (5-HT4b) (Homo sapiens, UniProt Q13639)	< 20 nM

query: // query IC50 value for entry CC(C)c1nn(-c2noc(C3CCN(C4C5CCC4CN(C(=O)CO)C5)CC3)n2)c2c(F)cccc12 (stereo not drawn)
result: 42.4 nM
